Test system: marrow cells (mononuclear cell fraction)
Test Protocol: Proliferation-stimulating effect on marrow cell of mouse (3H-TdR uptake)
Assay type: cell-based, mouse (BALB/c)
Run Parameters: 10^-2 μg/ml, percentage of control, 72 h
Procedure: Pharmacological Test 1: Proliferation-Stimulating Effect on Marrow Cell of Mouse […] The concentration of the MNF was adjusted to 1.5×10^6 cells/ml by using 10% FCS RPMI 1640 (Nissui Pharmaceutical Co., Ltd., Tokyo, Japan) as a culture medium. […] After 8 hour incubation, the cells were harvested, and the amount of the 3H-TdR taken in the nuclei was measured by a liquid scintillation counter.
Parameter: activity at 0.01 µg/mL (%)

[[record]]
compound = "CCCCCCCCCCCCCCCCCCCCCCCC[C@@H](O)C(=O)N[C@@H](CO[C@H]1O[C@H](CO)[C@H](O)[C@H](O)[C@H]1O)[C@H](O)[C@H](O)CCCCCCCCCCCCCCCC [Compound 27]"
obs_value = 165

[[record]]
compound = "CCCCCCCCCCCCCCCCCCCCCCCC[C@@H](O)C(=O)N[C@@H](CO[C@H]1O[C@H](CO)[C@H](O)[C@H](O)[C@H]1O)[C@H](O)[C@H](O)CCCCCCCCCCCCCCC [Compound 26]"
obs_value = 183

[[record]]
compound = "CCCCCCCCCCCCCCCCCCCCCC[C@@H](O)C(=O)N[C@@H](CO[C@H]1O[C@H](CO)[C@H](O)[C@H](O)[C@H]1O)[C@H](O)CCCCCCCCCCCCCCC [Compound 14]"
obs_value = 132

[[record]]
compound = "CCCCCCCCCCCCCCC[C@@H](O)[C@H](CO[C@H]1O[C@H](CO)[C@H](O)[C@H](O)[C@H]1O)NC(C)=O [Compound 8]"
obs_value = 81

[[record]]
compound = "CCCCCCCCCCCCCCCCCCCCCCCC(=O)N[C@@H](CO[C@H]1O[C@H](CO)[C@H](O)[C@H](O)[C@H]1O)[C@H](O)CCCCCCCCCCCCCCC [Compound 1]"
obs_value = 263

[[record]]
compound = "CCCCCCCCCCCCCCC[C@@H](O)[C@H](CO[C@H]1O[C@H](CO)[C@H](O)[C@H](O)[C@H]1O)NC(=O)CCCCCCC [Compound 7]"
obs_value = 351

[[record]]
compound = "CCCCCCCCCCCCCCCCCCCCCC[C@@H](O)C(=O)N[C@@H](CO[C@H]1O[C@H](CO)[C@H](O)[C@H](O)[C@H]1O)[C@H](O)[C@H](O)CCCCCCCCCCC [Compound 23]"
obs_value = 89

[[record]]
compound = "CCCCCCCCCCCCCCCCCCCCCC[C@H](O)C(=O)N[C@@H](CO[C@H]1O[C@H](CO)[C@H](O)[C@H](O)[C@H]1O)[C@H](O)[C@H](O)CCCCCCCCCCCCC [Compound 28]"
obs_value = 170

[[record]]
compound = "CCCCCCCCCCCCCCCCCCCCCC[C@H](O)C(=O)N[C@@H](CO[C@H]1O[C@H](CO)[C@H](O)[C@H](O)[C@H]1O)[C@H](O)[C@H](O)CCCCCCCCCCCC(C)C [Compound 30]"
obs_value = 105

[[record]]
compound = "CCCCCCCCCCCCCCCCCCCCCCCCCCCC(=O)N[C@@H](CO[C@H]1O[C@H](CO)[C@H](O)[C@H](O)[C@H]1O)[C@H](O)[C@H](O)CCCCCCCCCCCCC [Compound 34]"
obs_value = 183

[[record]]
compound = "CCCCCCCC/C=C\\CCCCCCCC(=O)N[C@@H](CO[C@H]1O[C@H](CO)[C@H](O)[C@H](O)[C@H]1O)[C@H](O)CCCCCCCCCCCCCCC [Compound 29]"
obs_value = 187

[[record]]
compound = "CCCCCCCCCCCCCCC[C@@H](O)[C@H](CO[C@H]1O[C@H](CO)[C@H](O)[C@H](O)[C@H]1O)NC(=O)CCCCCCCCC [Compound 6]"
obs_value = 196

[[record]]
compound = "CCCCCCCCCCCCCCCCCCCCCCCC(=O)N[C@@H](CO[C@H]1O[C@H](CO)[C@H](O)[C@H](O)[C@H]1O)[C@H](O)CCCCCCCCCCC [Compound 9]"
obs_value = 103

[[record]]
compound = "CCCCCCCCCCCCCCCCCCCCCC[C@@H](O)C(=O)N[C@@H](CO[C@H]1O[C@H](CO)[C@H](O)[C@H](O)[C@H]1O)[C@H](O)[C@H](O)CCCCCCC [Compound 24]"
obs_value = 79

[[record]]
compound = "CCCCCCCCCCCCCCCCCC(=O)N[C@@H](CO[C@H]1O[C@H](CO)[C@H](O)[C@H](O)[C@H]1O)[C@H](O)CCCCCCCCCCCCCCC [Compound 4]"
obs_value = 75

[[record]]
compound = "CCCCCCCCCCCCCCCCCCCCCCCC(=O)N[C@@H](CO[C@H]1O[C@H](CO)[C@H](O)[C@H](O)[C@H]1O)[C@H](O)[C@H](O)CCCCCCC [Compound 19]"
obs_value = 207

[[record]]
compound = "CCCCCCCCCCCCCCCCCCCCCC(=O)N[C@@H](CO[C@H]1O[C@H](CO)[C@H](O)[C@H](O)[C@H]1O)[C@H](O)CCCCCCCCCCCCCCC [Compound 2]"
obs_value = 92

[[record]]
compound = "CCCCCCCCCCCCCCCCCCCCCC[C@@H](O)C(=O)N[C@@H](CO[C@H]1O[C@H](CO)[C@H](O)[C@H](O)[C@H]1O)[C@H](O)[C@H](O)CCCCCCCCCCCCCC [Compound 21]"
obs_value = 96

[[record]]
compound = "CCCCCCCCCCCCCCCCCCCCCCCCCC(=O)N[C@@H](CO[C@H]1O[C@H](CO)[C@H](O)[C@H](O)[C@H]1O)[C@H](O)[C@H](O)CCCCCCCCCCCCCC [Compound 33]"
obs_value = 330

[[record]]
compound = "CCCCCCCCCCCCCCCCCCCC(=O)N[C@@H](CO[C@H]1O[C@H](CO)[C@H](O)[C@H](O)[C@H]1O)[C@H](O)CCCCCCCCCCCCCCC [Compound 3]"
obs_value = 87

